These measurements were taken from the NTF2 design screens of Basanta et al. (2020).

assay: protease stability score; higher = more stable; yeast display proteolysis, trypsin and chymotrypsin;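 further: relative to predicted unfolded state with 0 unfolded-like and 1 meaning tenfold more protease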
Label criterion met when protease stability score is at or above 1; anything below gets criterion not met.

Kindly determine if protease stability score recorded for "SEHDEMIHKIAKEIMEVLVTGNEEWLDKLVDPHMRLEFNGKDIHGREKLNELLRKFKNVKLEYHINSIEAWDGRTQVNGKVHIEYGDKSRIKDTRLHVLIWDGKIREMRVDHD" is above or exactly 1.
criterion met

Kindly determine if protease stability score recorded for "SEDEELVERALQEFLEHLETGDFETLRDQVDPNARVDIDGRERIGRHDILKHWEEWRWHEIKLKHVEFQGDFVHLDGKVRITIDGKEISTHVKILVYKVNGRWLMKELRIG" is above or exactly 1.
criterion met

Kindly determine if protease stability score recorded for "DKIKHLEDEIEKIFFETIETGDEHLFNQLVDPNVRVRIGDKHSVGREHVERVEREHREHMGVDHVEIRIHDSRTFNGVIHIEGKLHYHVNGRRHEHRIHIFLVVWDGVVRHLEIEIR" is above or exactly 1.
criterion not met

Kindly determine if protease stability score recorded for "DEDTEDLKRLIKLFVDLIRTGDWEELEKLLDPNVRLHFNGRDYHGRELALELMKVFGVDHIQLREVRVVNGKAENRTELIVNGREHEEHVIMEKIDGRWRIRSFEFR" is above or exactly 1.
criterion met

Kindly determine if protease stability score recorded for "DEDTKEADDFTKIWAKSVETGDEDMLKHLADPHVRVEIGDKVFIGRHFWLKVLRHIRVESVHVEDYKVQGEKVEYHVRFEVDINGQKVESTRRMIVRKVNGRWILETVILE" is above or exactly 1.
criterion met

Kindly determine if protease stability score recorded for "SEEEELVKKATDHWKNVIKTGDEHTIKKLVDPSARIIINGQEHHGRHMIHTLIHLWGVDKIEVHLRHLHMQGDKLEIINEVRVNGQSSTLTTISTKINGVWQFEEVQLE" is above or exactly 1.
criterion not met

Kindly determine if protease stability score recorded for "HEEEEEVKEALKELKELLETGDEDLWRRLADPDTRFELEFEGRHFHLHGWEAVLHFIREIKRRFKNVQFDWKRLNTQGNFAHMHVEIRVGDKIIHLDIIVLKYNGQWLDKRVRIFFE" is above or exactly 1.
criterion met

Kindly determine if protease stability score recorded for "DEDEKERKRDLDKLRHFLETGNEQHLLEMLDPHARVTVGDKELIGREDFSKWMLEMRIHHDEIKRLEIYNGRIHVDYEMDVEVGDKRFRTDFRITARKVNGRWILHSMEVK" is above or exactly 1.
criterion met

Kindly determine if protease stability score recorded for "TEDREEVRRWWKDLLRSLHTGDEEVLRKQIDPNVKLVDEDERSVGMDRFVKFMHFINREIRIERIHIKRLRLIDGQLEADTRMHVNIDGRIEETDVHILAKKVDGKWLLTSVILD" is above or exactly 1.
criterion met

Kindly determine if protease stability score recorded for "DEIEEVFREYTERIVDMWKTGDEELTNRNMDPNARMRIDVNGRDLELHGRERWIEHFRELGIKYEEIRDVRLRLVGDKANLEIDGEVDVNGQKHHTSLIIHVEKINGKWVISRIIFFIR" is above or exactly 1.
criterion met
